# Assay Summary: Clearance in nude mouse at 5 umol/kg, iv
# Format: ADME, organism-based
# Condition Parameters: in vivo
Property Measured: clearance (mL/min/kg)
All answers are understood in mL/min/kg, so give the number only.

Query: Can you look up the measured clearance of CN[C@H]1CCN(C(=O)c2ccc(Nc3ncc(F)c(-c4cnc(C)n4C(C)C)n3)cc2)C1 for me?
Reply: 35

###

This listing pairs compounds with measured solubility thermodynamic at 24 h.
# Assay Summary: physchem
# Condition Parameters: buffer, pH 7.4
# Description: Equilibrium solubility at pH 7.4 after 24 hrs

Known results for compounds:
Cc1ncc(-c2nc(Nc3ccc(C(=O)NC4CCN(C)CC4)c(F)c3)ncc2F)n1C(C)C : 270 µM
Cc1ncc(-c2nc(Nc3ccc(C(=O)N4CC[C@@H](N(C)C)C4)cc3)ncc2F)n1C(C)C : > 2400 µM
Cc1ncc(-c2nc(Nc3ccc(C(=O)N4CCN(C)CC4)cc3)ncc2F)n1C(C)C : 60 µM

Query: # lookup: solubility thermodynamic at 24 h of Cc1ncc(-c2ccnc(Nc3ccc(C(=O)NCCN(C)C)c(F)c3)n2)n1C(C)C
Reply: > 1900 µM

Query: Would you kindly share the measured solubility thermodynamic at 24 h for Cc1ncc(-c2nc(Nc3ccc(C(=O)NCCN(C)C)c(F)c3)ncc2F)n1C(C)C ?
Reply: > 2700 µM

Query: solubility thermodynamic at 24 h for Cc1ncc(-c2nc(Nc3ccc(C(=O)NC4CCN(C)CC4)cc3)ncc2F)n1C(C)C ?
Reply: > 2500 µM

Query: // returns reported solubility thermodynamic at 24 h for input Cc1ncc(-c2ccnc(Nc3ccc(C(=O)NC4CCN(C)CC4)c(F)c3)n2)n1C(C)C
Reply: > 2200 µM

Query: Which solubility thermodynamic at 24 h is listed for Cc1ncc(-c2nc(Nc3ccc(C(=O)N4CC[C@H](N(C)C)C4)cc3)ncc2F)n1C(C)C ?
Reply: > 2100 µM

Query: What value of measured solubility thermodynamic at 24 h is listed for Cc1ncc(-c2nc(Nc3ccc(C(=O)N4CCCN(C)CC4)cc3)ncc2F)n1C(C)C ?
Reply: > 2600 µM

###

# Assay Summary: Protein binding in Han/Wistar rat plasma assessed as fraction unbound
# Type: ADME, cell-free
# Condition Parameters: read-out: PPB
Property Measured: fraction unbound
// response body must contain only the number

Query: Find the recorded fraction unbound belonging to CN[C@H]1CCN(C(=O)c2ccc(Nc3ncc(F)c(-c4cnc(C)n4C(C)C)n3)cc2)C1 and report it.
Reply: 0.04

###

The entries below are paired with their reported pKa.
# Assay Summary: Dissociation constant, pKa of the compound
# Format: physicochemical
# print the numeric value only

For orientation, consider the following solved cases.
Cc1ncc(-c2nc(Nc3ccc(C(=O)NCCN(C)C)c(F)c3)ncc2F)n1C(C)C : 8.6
Cc1ncc(-c2nc(Nc3ccc(C(=O)N4CCN(C)CC4)cc3)ncc2F)n1C(C)C : 6.9
Cc1ncc(-c2nc(Nc3ccc(C(=O)N4CC[C@H](N(C)C)C4)cc3)ncc2F)n1C(C)C : 7.4
Cc1ncc(-c2ccnc(Nc3ccc(C(=O)N4CCN(C)CC4)cc3)n2)n1C(C)C : 7
Cc1ncc(-c2nc(Nc3ccc(C(=O)N4CCCN(C)CC4)cc3)ncc2F)n1C(C)C : 8.1

Proceeding to the next compound to report its pKa.
Query: # lookup: pKa of Cc1ncc(-c2nc(Nc3ccc(C(=O)NC4CCN(C)CC4)c(F)c3)ncc2F)n1C(C)C
Reply: 8.8

These entries and their values trace back to ChEMBL document CHEMBL1152195.
